Origin of values: ChEMBL document CHEMBL1145498

# SYSTEM: Death-associated protein kinase 3 (Homo sapiens) (UniProt O43293)
# Sequence (O43293 whole entry, looked up): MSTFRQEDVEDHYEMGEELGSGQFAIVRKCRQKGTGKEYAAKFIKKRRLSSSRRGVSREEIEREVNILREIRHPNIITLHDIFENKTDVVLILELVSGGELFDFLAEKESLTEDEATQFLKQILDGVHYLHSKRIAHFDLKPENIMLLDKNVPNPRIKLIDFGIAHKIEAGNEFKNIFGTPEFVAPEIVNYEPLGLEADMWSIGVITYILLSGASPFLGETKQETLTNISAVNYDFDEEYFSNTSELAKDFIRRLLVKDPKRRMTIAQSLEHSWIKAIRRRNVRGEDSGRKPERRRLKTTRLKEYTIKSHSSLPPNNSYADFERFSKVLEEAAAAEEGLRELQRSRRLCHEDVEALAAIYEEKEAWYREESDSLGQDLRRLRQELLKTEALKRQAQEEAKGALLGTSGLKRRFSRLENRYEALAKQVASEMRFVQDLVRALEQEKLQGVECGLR
Exam item: assign label 1 to entries whose ΔTm is below 0.8 °C and label 0 to entries at or above 0.8 °C. Note that a value of exactly 0.8 °C receives label 0.

{"columns": ["COMPOUND", "LABEL_CLASS"],
 "data": [
  ["Nc1cccc(-c2cc3c(Oc4cccc(O)c4)ncnc3[nH]2)c1", "label 1"]
]}

Problem: Is ΔTm of O=C1c2ccccc2-c2n[nH]c3cccc1c23 strictly below 0.8 °C?
Solution: label 0

Problem: Is ΔTm of COc1cc2c(cc1OC)-c1n[nH]c(Nc3cccc(F)c3)c1C2 strictly below 0.8 °C?
Solution: label 1

Problem: Is ΔTm of Cc1[nH]c(/C=C2\C(=O)Nc3ccc(S(=O)(=O)N(C)c4cccc(Cl)c4)cc32)c(C)c1C(=O)N1CCN(C)CC1 strictly below 0.8 °C?
Solution: label 0

* * *

# ASSAY_SUMMARY: Inhibition of Aurora kinase B
ASSAY_READOUT: pIC50
Give bare numbers, as −log10 of the molar value.

Problem: pIC50 for COc1cc2ncnc(Nc3ccc(NC(=O)c4ccccc4)cc3)c2cc1OC ?
Solution: 6.62

* * *

Exercise: for every item that follows, state its recorded ΔTm.
# SYSTEM: Serine/threonine-protein kinase PLK4 (Homo sapiens) (UniProt O00444)
# Sequence (O00444 whole entry): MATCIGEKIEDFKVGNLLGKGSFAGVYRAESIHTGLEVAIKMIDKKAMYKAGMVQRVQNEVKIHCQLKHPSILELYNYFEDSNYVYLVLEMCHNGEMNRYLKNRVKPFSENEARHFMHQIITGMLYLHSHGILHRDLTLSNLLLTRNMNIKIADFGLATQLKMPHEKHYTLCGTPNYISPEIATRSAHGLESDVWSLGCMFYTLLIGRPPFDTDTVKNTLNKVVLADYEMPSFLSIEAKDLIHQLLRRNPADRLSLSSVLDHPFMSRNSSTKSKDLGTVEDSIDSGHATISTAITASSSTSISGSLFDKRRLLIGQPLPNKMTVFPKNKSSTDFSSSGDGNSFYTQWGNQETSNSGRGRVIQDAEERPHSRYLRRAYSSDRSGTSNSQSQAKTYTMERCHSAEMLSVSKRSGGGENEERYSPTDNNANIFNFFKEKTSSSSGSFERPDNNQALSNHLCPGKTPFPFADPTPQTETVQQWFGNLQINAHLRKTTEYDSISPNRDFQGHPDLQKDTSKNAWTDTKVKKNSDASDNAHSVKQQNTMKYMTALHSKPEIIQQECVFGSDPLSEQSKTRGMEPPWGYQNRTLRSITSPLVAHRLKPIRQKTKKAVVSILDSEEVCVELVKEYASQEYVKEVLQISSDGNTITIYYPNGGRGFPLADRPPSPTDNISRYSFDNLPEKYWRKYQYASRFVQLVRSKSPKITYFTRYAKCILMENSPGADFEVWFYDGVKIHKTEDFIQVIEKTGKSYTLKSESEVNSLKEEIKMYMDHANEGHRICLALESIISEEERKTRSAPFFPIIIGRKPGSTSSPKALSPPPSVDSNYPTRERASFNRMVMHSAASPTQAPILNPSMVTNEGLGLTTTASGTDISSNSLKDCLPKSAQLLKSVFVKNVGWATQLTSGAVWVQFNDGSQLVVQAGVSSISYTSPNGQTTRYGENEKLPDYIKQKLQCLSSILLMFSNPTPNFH
Answers are plain numbers, in °C.

For orientation, consider the following solved cases.
{"columns": ["MOLECULE", "SYSTEM", "OBS_VALUE"],
 "data": [
  ["CN[C@@H]1CC2O[C@@](C)([C@@H]1OC)n1c3ccccc3c3c4c(c5c6ccccc6n2c5c31)C(=O)NC4", "Serine/threonine-protein kinase PLK4 (Homo sapiens) (UniProt O00444)", 21.2],
  ["CN(c1cccnc1)c1cc2c(Nc3ccc(F)c(Cl)c3)c(C#N)cnc2cn1", "Serine/threonine-protein kinase PLK4 (Homo sapiens) (UniProt O00444)", 8.2],
  ["CC(C)(C)c1cc(C=C2C(=O)C=CC2=O)cc(C(C)(C)C)c1O", "Serine/threonine-protein kinase PLK4 (Homo sapiens) (UniProt O00444)", 1],
  ["CCOc1cc(/C=C(\\C#N)C(N)=O)cc(CSc2ccccc2)c1O", "Serine/threonine-protein kinase PLK4 (Homo sapiens) (UniProt O00444)", 2.8],
  ["C/C(O)=C(\\C#N)C(=O)Nc1cc(Br)ccc1Br", "Serine/threonine-protein kinase PLK4 (Homo sapiens) (UniProt O00444)", 1.1],
  ["COc1ccc(CNc2nc(N(CCO)CCO)nc3c2ncn3C(C)C)cc1", "Serine/threonine-protein kinase PLK4 (Homo sapiens) (UniProt O00444)", 0.5],
  ["COc1ccc2c(c1)/C(=C/c1cnc[nH]1)C(=O)N2 [SU-9516]", "Serine/threonine-protein kinase PLK4 (Homo sapiens) (UniProt O00444)", 4.9],
  ["NC(=O)c1ccc(-c2nc(-c3ccc4c(c3)OCCO4)c(-c3ccccn3)[nH]2)cc1", "Serine/threonine-protein kinase PLK4 (Homo sapiens) (UniProt O00444)", 0.1]
]}

Dear reader, for each entry below, please note its ΔTm.
1. CC(C)[C@H](CO)Nc1nc(Nc2cc(N)cc(Cl)c2)c2ncn(C(C)C)c2n1 [AMINOPURVALANOL]
2. N#C/C(=C\c1ccc(O)c(O)c1)C(=O)Nc1ccccc1
3. Cc1c2ccncc2c(C)c2c1[nH]c1ccccc12 [ELLIPTECINE]
4. COc1cc(C[C@H]2C(=O)OC[C@@H]2Cc2ccc(OC)c(OC)c2)ccc1O [ARCTIGENIN]
5. COc1cc2ncnc(Nc3ccc(NC(=O)c4ccccc4)cc3)c2cc1OC [ANILINOQUINAZOLINE1]

Solution:
1: 6.2; 2: 1.3; 3: 3.3; 4: 0; 5: 0.5

* * *

Entries with reported ΔTm on UniProt P51812
Sequence (P51812 whole entry): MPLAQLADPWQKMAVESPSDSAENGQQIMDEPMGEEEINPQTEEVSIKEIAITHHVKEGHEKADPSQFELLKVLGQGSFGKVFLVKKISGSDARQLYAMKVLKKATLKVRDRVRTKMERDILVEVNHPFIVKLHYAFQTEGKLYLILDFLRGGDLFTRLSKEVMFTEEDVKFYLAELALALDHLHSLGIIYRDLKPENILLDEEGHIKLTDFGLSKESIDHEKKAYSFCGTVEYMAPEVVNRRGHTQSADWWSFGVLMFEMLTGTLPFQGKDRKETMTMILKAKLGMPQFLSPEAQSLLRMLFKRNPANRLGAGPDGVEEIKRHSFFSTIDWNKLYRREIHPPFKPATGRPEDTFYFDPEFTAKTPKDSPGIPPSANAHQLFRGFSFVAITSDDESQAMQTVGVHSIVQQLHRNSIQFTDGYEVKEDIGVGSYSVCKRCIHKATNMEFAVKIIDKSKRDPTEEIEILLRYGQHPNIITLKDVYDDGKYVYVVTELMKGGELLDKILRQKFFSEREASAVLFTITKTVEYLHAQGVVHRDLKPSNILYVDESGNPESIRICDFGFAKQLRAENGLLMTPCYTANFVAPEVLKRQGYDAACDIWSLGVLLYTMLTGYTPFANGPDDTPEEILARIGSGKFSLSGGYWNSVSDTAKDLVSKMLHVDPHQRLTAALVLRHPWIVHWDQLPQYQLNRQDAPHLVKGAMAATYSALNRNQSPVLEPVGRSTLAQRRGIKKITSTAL
Answers are plain numbers, in °C.

For orientation, consider the following solved cases.
{"columns": ["MOLECULE", "ΔTm / °C"],
 "data": [
  ["CCN(CC)CCNC(=O)c1c(C)[nH]c(/C=C2\\C(=O)Nc3ccc(F)cc32)c1C", 8.6],
  ["OC[C@H]1O[C@@H](n2cnc3cc(Cl)c(Cl)cc32)[C@H](O)[C@@H]1O", 0],
  ["COc1ccc(COc2ccc(Cc3cnc(N)nc3N)cc2OC)cc1", -0.2]
]}

Dear reader, for each entry below, please note its ΔTm.
1. O=c1cc(-c2ccc(O)cc2)oc2cc(O)cc(O)c12
2. Ic1cccc(CSc2nnc(-c3ccncc3)o2)c1
3. Cn1cc(C2=C(c3cn(CCCSC(=N)N)c4ccccc34)C(=O)NC2=O)c2ccccc21
4. COc1cc2ncnc(Nc3ccc(NC(=O)c4ccccc4)cc3)c2cc1OC [ANILINOQUINAZOLINE1]

Solution:
[2.4, 0, 2.1, 9.4]

Dear reader, for each entry below, please note its ΔTm.
1. COc1cc(O)c2c(c1)oc(=O)c1c3cc(O)c(O)cc3oc21 [WEDELOLACTONE]
2. O=C1c2ccccc2-[n+]2ccc3c([nH]c4ccccc43)c21 [FASCAPLYSIN CHLORIDE]
3. N#CC(C#N)=Cc1ccc(O)c(O)c1 [TYRPHOSTIN 23]

Solution:
1. 1
2. 0.7
3. 2.7

* * *

# SYSTEM: Glycogen synthase kinase-3 beta (Homo sapiens, UniProt P49841)
# Sequence (P49841 whole entry, looked up): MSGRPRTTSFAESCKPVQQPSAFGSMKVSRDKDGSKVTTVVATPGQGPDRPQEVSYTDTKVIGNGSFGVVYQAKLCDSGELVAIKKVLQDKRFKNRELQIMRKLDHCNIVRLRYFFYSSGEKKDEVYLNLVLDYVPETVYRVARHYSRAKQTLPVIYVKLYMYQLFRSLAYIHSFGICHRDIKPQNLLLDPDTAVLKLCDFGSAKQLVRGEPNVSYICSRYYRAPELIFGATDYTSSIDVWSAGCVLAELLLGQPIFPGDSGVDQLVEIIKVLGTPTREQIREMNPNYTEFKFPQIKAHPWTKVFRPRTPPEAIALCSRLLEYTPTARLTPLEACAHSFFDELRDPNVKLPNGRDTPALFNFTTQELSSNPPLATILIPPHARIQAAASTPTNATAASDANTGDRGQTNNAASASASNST
Exam item: assign 1.0 to entries whose ΔTm is below -0.2 °C and 0.0 to entries at or above -0.2 °C. Note that a value of exactly -0.2 °C receives 0.0.

Look over these answered cases.
{"columns": ["STRUCTURE_SMILES", "LABEL_CLASS"],
 "data": [
  ["CC(C)(C)c1cc(C=C2C(=O)C=CC2=O)cc(C(C)(C)C)c1O", 1.0],
  ["COc1ccc(CNC(=O)Nc2ncc([N+](=O)[O-])s2)cc1", 0.0],
  ["O=C1C(Cl)=C(N2C(=O)CCC2=O)C(=O)c2ccccc21", 1.0]
]}

Problem: Is ΔTm of Cn1cc(C2=C(c3cn(CCCN)c4ccccc34)C(=O)NC2=O)c2ccccc21 strictly below -0.2 °C?
Solution: 0.0

Problem: Is ΔTm of C=CNC#N strictly below -0.2 °C?
Solution: 0.0

* * *

Exercise: for every item that follows, state its recorded ΔTm.
# SYSTEM: Serine/threonine-protein kinase PLK1 (Homo sapiens) (UniProt P53350)
# Sequence (P53350 whole entry): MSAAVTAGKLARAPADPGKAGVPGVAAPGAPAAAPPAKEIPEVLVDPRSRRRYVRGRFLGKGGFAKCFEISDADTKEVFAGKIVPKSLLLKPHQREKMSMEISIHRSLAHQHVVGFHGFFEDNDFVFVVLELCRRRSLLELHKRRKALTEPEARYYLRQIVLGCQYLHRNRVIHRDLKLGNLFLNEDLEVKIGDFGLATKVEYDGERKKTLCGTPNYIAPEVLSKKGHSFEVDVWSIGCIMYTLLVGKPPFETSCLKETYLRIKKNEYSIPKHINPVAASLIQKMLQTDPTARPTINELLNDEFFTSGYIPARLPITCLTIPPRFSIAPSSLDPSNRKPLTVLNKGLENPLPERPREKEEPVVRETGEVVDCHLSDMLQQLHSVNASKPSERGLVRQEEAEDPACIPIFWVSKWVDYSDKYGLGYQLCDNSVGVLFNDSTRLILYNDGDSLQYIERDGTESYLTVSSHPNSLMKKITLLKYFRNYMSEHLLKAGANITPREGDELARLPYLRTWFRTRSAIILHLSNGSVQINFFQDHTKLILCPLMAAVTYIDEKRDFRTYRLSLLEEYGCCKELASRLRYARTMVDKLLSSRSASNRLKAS

Dear reader, for each entry below, please note its ΔTm.
1. CC(C)(C)n1nc(-c2cccc3ccccc23)c2c(N)ncnc21
2. O=c1cc(N2CCOCC2)oc2c(-c3ccccc3)cccc12
3. O=C1c2ccccc2-[n+]2ccc3c([nH]c4ccccc43)c21 [FASCAPLYSIN CHLORIDE]
4. O=c1cc(-c2ccc(O)cc2)oc2cc(O)cc(O)c12
5. Nc1n[nH]c2nc3ccccc3nc12 [QUINOXALINE1]

Solution:
["0 °C", "4.7 °C", "0.8 °C", "2 °C", "0.3 °C"]

Dear reader, for each entry below, please note its ΔTm.
1. COc1ccc(S(=O)(=O)N(CCO)c2ccccc2CN(C)C/C=C/c2ccc(Cl)cc2)cc1
2. C[C@@H]1C[C@H]2O[C@@H]2/C=C\C=C\C(=O)Cc2c(Cl)c(O)cc(O)c2C(=O)O1 [RADICICOL]
3. CC(C)n1cnc2c(NCc3ccccc3)nc(NCCCO)nc21
4. CCOc1ccc(/C=C2/SC(=O)N(CCN)C2=O)cc1 [HIAZOLIDINEDIONE1]

Solution:
["-0.2 °C", "0.2 °C", "1.8 °C", "0.6 °C"]

Dear reader, for each entry below, please note its ΔTm.
1. COc1cccc(-c2cc(=O)c3ccccc3o2)c1N
2. N#C/C(=C(/N)Sc1ccc(N)cc1)c1ccccc1C(F)(F)F

Solution:
1: 0.3 °C; 2: -0.2 °C

* * *

# SYSTEM: Mitogen-activated protein kinase 6 (Homo sapiens) (UniProt Q16659)
# Sequence (Q16659 whole entry): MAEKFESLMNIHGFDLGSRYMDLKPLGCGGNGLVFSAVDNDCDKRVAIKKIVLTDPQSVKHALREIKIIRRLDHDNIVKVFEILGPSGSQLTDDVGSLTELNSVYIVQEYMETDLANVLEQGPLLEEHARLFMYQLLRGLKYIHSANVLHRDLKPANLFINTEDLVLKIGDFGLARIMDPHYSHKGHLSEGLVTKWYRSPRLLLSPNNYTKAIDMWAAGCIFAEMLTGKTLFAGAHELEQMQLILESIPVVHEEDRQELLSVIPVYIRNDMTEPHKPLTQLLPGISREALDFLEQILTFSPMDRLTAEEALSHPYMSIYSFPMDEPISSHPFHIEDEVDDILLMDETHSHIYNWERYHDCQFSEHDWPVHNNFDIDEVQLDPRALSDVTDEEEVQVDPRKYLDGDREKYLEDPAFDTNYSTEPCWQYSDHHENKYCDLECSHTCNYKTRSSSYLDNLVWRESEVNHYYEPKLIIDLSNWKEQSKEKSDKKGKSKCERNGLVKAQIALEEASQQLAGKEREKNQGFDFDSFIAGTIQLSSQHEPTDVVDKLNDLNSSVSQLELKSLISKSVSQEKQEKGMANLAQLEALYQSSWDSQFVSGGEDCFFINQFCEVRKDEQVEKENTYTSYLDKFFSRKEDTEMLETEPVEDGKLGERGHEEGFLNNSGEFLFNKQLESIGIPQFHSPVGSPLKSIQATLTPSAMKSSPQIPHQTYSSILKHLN
Exercise: for every item that follows, state its recorded ΔTm.
Answers are plain numbers, in °C.

{"columns": ["MOLECULE", "SYSTEM", "UNIT_DESCRIPTOR", "ΔTm"],
 "data": [
  ["O=C1NC(=O)c2c1c1c3ccccc3[nH]c1n1cncc21 [ISOGRANULATIMIDE]", "Mitogen-activated protein kinase 6 (Homo sapiens) (UniProt Q16659)", "°C", 1.2],
  ["O=C(O)c1cc(N(Cc2ccccc2O)Cc2cc(O)ccc2O)ccc1O [LAVENDUSTIN A]", "Mitogen-activated protein kinase 6 (Homo sapiens) (UniProt Q16659)", "°C", 0.8],
  ["CN(C)S(=O)(=O)c1ccc2c(c1)/C(=C/c1cc3c([nH]1)CCCC3)C(=O)N2", "Mitogen-activated protein kinase 6 (Homo sapiens) (UniProt Q16659)", "°C", 0.6],
  ["CC(C)(C)c1cc(C=C2C(=O)C=CC2=O)cc(C(C)(C)C)c1O", "Mitogen-activated protein kinase 6 (Homo sapiens) (UniProt Q16659)", "°C", -0.7],
  ["O=[N+]([O-])c1ccc(-c2nc(-c3ccc(F)cc3)c(-c3ccncc3)[nH]2)cc1", "Mitogen-activated protein kinase 6 (Homo sapiens) (UniProt Q16659)", "°C", 0.4],
  ["CC(C)[C@H](CO)Nc1nc(Nc2cc(N)cc(Cl)c2)c2ncn(C(C)C)c2n1 [AMINOPURVALANOL]", "Mitogen-activated protein kinase 6 (Homo sapiens) (UniProt Q16659)", "°C", 1.5]
]}

Dear reader, for each entry below, please note its ΔTm.
1. COc1cc(OC)c(/C=C2\C(=O)Nc3ccccc32)c(OC)c1
2. COc1cc2ncnc(Nc3ccc(NC(=O)c4ccccc4)cc3)c2cc1OC [ANILINOQUINAZOLINE1]

Solution:
-0.2
-0.1

Problem: Which measured ΔTm belongs to Oc1cc(O)cc(/C=C/c2ccc(O)c(O)c2)c1 [PICEATANNOL] , tested on Mitogen-activated protein kinase 6 (Homo sapiens) (UniProt Q16659)?
Solution: 0.9
